target: TNF-α converting enzyme (TACE) (Homo sapiens); test: Test procedure for measuring TACE inhibition (fluorescent peptidyl substrate); assay type: biochemical; settings: Table 1
Sequence (P78536 215-824): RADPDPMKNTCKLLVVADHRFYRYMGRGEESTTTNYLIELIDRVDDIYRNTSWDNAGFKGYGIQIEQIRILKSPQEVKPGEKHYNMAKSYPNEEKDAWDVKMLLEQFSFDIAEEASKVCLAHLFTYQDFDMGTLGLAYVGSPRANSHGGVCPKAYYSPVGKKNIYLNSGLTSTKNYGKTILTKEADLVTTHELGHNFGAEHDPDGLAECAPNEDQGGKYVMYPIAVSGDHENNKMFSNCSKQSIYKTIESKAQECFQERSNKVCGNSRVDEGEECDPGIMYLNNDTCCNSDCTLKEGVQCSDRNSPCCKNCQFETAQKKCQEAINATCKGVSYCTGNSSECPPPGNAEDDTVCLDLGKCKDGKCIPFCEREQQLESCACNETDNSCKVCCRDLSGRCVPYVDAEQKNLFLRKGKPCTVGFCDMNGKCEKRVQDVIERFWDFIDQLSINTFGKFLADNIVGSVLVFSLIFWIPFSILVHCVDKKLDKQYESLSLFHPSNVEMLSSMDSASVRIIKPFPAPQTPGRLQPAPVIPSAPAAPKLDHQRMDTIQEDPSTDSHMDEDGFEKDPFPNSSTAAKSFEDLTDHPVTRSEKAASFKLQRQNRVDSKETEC
readout type: IC50

In [3]: df
Out[3]:
                                   molecule                              assay_target  observed_value
0  CC#CCOc1ccc(S(=O)(=O)C(CCCCNC(=O)Cc2csc3ccccc23)C(=O)NO)cc1 (stereo not shown)  TNF-α converting enzyme (TACE) (Homo sapiens)         24.9 nM
1  CC#CCOc1ccc([S+]([O-])C(CCCCNC(=O)CNC(=O)c2ccc3ccccc3n2)C(=O)NO)cc1 (stereo not shown)  TNF-α converting enzyme (TACE) (Homo sapiens)         27.2 nM
2  CC#CCOc1ccc(S(=O)(=O)C(CCCCNC(=O)CNC(=O)CN2C(=O)c3ccccc3C2=O)C(=O)NO)cc1 (stereo not shown)  TNF-α converting enzyme (TACE) (Homo sapiens)         16.1 nM
3  CC#CCOc1ccc(S(=O)(=O)C(CCCCNC(=O)C2c3ccccc3Oc3ccccc32)C(=O)NO)cc1 (stereo not shown)  TNF-α converting enzyme (TACE) (Homo sapiens)         65.1 nM

* * *

biological target: MMP-1 (Homo sapiens); test: MMP-1 inhibition (thiopeptide or fluorescent peptide substrate); conditions: read-out: MMP1
Sequence (P03956 100-469): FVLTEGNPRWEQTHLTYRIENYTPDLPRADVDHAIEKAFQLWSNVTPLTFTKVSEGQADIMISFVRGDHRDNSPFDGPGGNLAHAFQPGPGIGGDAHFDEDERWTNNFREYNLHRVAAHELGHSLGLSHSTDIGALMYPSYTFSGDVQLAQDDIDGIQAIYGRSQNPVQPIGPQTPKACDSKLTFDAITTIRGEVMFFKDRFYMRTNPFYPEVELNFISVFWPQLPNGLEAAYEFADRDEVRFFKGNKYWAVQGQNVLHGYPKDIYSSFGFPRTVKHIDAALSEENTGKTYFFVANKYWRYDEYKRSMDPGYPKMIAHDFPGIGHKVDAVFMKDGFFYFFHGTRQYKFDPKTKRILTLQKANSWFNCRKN
Where inhibition at 10 µM equals or exceeds 7%, the correct label is rule met; where it does not, the label is rule not met.

In [3]: df
Out[3]:
                                    molecule  answer_label
 0  CC#CCOc1ccc(SC(C(=O)NO)c2ccccc2)cc1 (centres unmarked)  rule not met
 1  CC#CCOc1ccc(SC(C(=O)NO)C2CCCCC2)cc1 (centres unmarked)  rule not met
 2  CC#CCOc1ccc(S(=O)(=O)C(CCCCCC#N)C(=O)NO)cc1 (centres unmarked)      rule met
 3  CC#CCOc1ccc([S+]([O-])[C@@H](C(=O)NO)c2ccccc2)cc1 (some centres unmarked)      rule met
 4  CC#CCOc1ccc(S(=O)(=O)C(C(=O)NO)C2CCN(C(=O)OC(C)(C)C)CC2)cc1 (centres unmarked)      rule met
 5  CC#CCOc1ccc(SC(C(=O)NO)c2cccc3ccccc23)cc1 (centres unmarked)      rule met
 6  CC#CCOc1ccc(SC(C(=O)NO)c2cccc(Br)c2)cc1 (centres unmarked)  rule not met
 7  CC#CCOc1ccc(S(=O)(=O)C(C(=O)NO)C2CCNCC2)cc1 (centres unmarked)      rule met
 8  CC#CCOc1ccc(S(=O)(=O)C(C(=O)NO)c2ccc(OCC)cc2)cc1 (centres unmarked)      rule met
 9  CC#CCOc1ccc(SC(C(=O)NO)c2cccc(Cl)c2)cc1 (centres unmarked)      rule met
10  CC#CCOc1ccc([S+]([O-])[C@@H](C(=O)NO)c2cccc(Br)c2)cc1 (single isomer, unassigned)  rule not met
11  CC#CCOc1ccc([S+]([O-])[C@H](C(=O)NO)c2ccc(OC)cc2)cc1 (single isomer, unassigned)  rule not met
12  CC#CCOc1ccc(S(=O)(=O)C(C(=O)NO)C2CCN(C(=O)c3ccccc3)CC2)cc1 (centres unmarked)      rule met
13  CC#CCOc1ccc(SC(C(=O)NO)c2ccc(Cl)cc2)cc1 (centres unmarked)  rule not met
14  CC#CCOc1ccc(S(=O)(=O)C(C(=O)NO)c2cccc(Cl)c2)cc1 (centres unmarked)      rule met
15  CC#CCOc1ccc(S(=O)(=O)C(C(=O)NO)c2cccc(Br)c2)cc1 (centres unmarked)  rule not met
16  CC#CCOc1ccc(SC(C(=O)NO)c2ccc(-c3cccs3)cc2)cc1 (centres unmarked)  rule not met
17  CC#CCOc1ccc([S+]([O-])C(C(=O)NO)c2ccc(OCC)cc2)cc1 (centres unmarked)      rule met
18  CC#CCOc1ccc(S(=O)(=O)C(C(=O)NO)c2ccc(Br)cc2)cc1 (centres unmarked)      rule met
19  CC#CCOc1ccc(S(=O)(=O)C(C(=O)NO)c2ccc(F)cc2)cc1 (centres unmarked)  rule not met
20  CC#CCOc1ccc(S(=O)(=O)C(C(=O)NO)c2cccc3ccccc23)cc1 (centres unmarked)      rule met
21  CC#CCOc1ccc([S+]([O-])C(C(=O)NO)c2ccc3ccccc3c2)cc1 (centres unmarked)  rule not met
22  CC#CCOc1ccc(SC(C(=O)NO)c2ccccc2OC)cc1 (centres unmarked)      rule met
23  CC#CCOc1ccc(SC(C(=O)NO)c2ccc3ccccc3c2)cc1 (centres unmarked)  rule not met
24  CC#CCOc1ccc(SC(C(=O)NO)c2ccc(OC)cc2)cc1 (centres unmarked)  rule not met
25  CC#CCOc1ccc([S+]([O-])C(C(=O)NO)c2ccc(Cl)cc2)cc1 (mixture of isomers)      rule met
26  CC#CCOc1ccc(SC(C(=O)NO)c2ccc(OCC)cc2)cc1 (centres unmarked)  rule not met
27  CC#CCOc1ccc(S(=O)(=O)C(C(=O)NO)c2ccc3ccccc3c2)cc1 (centres unmarked)  rule not met
28  CC#CCOc1ccc(S(=O)(=O)C(C(=O)NO)c2ccc(OC)cc2)cc1 (centres unmarked)      rule met
29  CC#CCOc1ccc([S+]([O-])[C@H](C(=O)NO)c2cccc(Br)c2)cc1 (single isomer, unassigned)      rule met
30  CC#CCOc1ccc([S+]([O-])[C@@H](C(=O)NO)c2ccc(Br)cc2)cc1 (single isomer, unassigned)      rule met
31  CC#CCOc1ccc([S+]([O-])C(C(=O)NO)c2ccccc2OC)cc1 (centres unmarked)  rule not met
32  CC#CCOc1ccc(S(=O)(=O)C(C(=O)NO)C2CCCCC2)cc1 (centres unmarked)      rule met
